Each entry below carries its reported protein stability index.
B1: CAMK2A (parent)
chain: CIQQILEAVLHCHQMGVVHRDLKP

Variants of: B1
Test: protein stability index of a GFP-peptide fusion (GPS, HEK-293T) (PSI 1-6); higher = more stable;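 also: lentivirally expressed fusions sorted by FACS into six bins by GFP to DsRed ratio, PSI derived from sequencing read proportions per bin multiplied by bin number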
Settings: c terminus: a fixed tail appended
Please give only the number in your answer, with no unit.

Solved cases below.
{"VARIANT LABEL": "Q3V", "protein stability index": 3.85}
{"VARIANT LABEL": "Q4R", "protein stability index": 2.94}
{"VARIANT LABEL": "P24G", "protein stability index": 2.88}
{"VARIANT LABEL": "L10G", "protein stability index": 1.67}

Q: What value of protein stability index has been reported for the following variant? `Q3C`
A: 3.04

Q: Look up protein stability index: `C12A`
A: 2.34

Q: Could you share which protein stability index value was measured for `G16M` ?
A: 3.07
